# assay system: TYK2 JH1 JH2 (human) (UniProt P29597)
# Sequence (P29597 whole entry, looked up): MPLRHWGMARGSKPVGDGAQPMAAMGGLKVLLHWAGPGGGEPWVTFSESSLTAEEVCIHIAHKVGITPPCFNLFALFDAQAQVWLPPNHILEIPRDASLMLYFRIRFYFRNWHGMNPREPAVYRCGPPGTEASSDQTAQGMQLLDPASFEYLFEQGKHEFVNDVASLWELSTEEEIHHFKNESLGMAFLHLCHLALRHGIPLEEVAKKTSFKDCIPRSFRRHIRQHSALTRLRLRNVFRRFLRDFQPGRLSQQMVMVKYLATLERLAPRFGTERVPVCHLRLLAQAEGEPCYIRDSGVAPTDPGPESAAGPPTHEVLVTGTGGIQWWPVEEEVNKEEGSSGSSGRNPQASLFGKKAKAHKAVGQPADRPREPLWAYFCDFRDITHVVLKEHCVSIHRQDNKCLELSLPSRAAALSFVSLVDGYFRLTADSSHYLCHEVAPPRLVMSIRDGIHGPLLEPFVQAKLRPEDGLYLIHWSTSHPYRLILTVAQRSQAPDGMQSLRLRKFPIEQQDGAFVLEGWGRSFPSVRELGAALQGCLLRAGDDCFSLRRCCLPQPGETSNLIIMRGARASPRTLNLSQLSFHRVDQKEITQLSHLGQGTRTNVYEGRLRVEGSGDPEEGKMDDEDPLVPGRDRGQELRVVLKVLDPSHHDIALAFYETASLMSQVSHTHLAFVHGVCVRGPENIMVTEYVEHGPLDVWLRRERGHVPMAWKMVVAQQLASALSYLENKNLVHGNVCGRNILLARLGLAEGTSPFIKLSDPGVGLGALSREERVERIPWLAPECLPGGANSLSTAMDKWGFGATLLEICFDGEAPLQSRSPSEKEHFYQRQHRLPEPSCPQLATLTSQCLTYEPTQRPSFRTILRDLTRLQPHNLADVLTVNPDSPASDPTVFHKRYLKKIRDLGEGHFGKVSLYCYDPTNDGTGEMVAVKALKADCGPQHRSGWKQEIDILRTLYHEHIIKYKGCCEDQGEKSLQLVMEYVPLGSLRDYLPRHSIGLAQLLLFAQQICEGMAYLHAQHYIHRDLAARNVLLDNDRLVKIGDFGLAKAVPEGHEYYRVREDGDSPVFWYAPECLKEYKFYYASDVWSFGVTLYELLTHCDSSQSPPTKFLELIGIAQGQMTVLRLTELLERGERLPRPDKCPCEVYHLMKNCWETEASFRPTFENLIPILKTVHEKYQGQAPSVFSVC
# assay explanation: Caliper, Mobility shift assay off-chip
# stated conditions: compound 0.02 µM
readout: inhibition (%)

Worked examples follow.
COc1cc2c(Oc3ccc4[nH]c(C)cc4c3F)ncnc2cc1OCCCN1CCCC1 = 4.8
CNC(=O)c1cc(Oc2ccc(NC(=O)Nc3ccc(Cl)c(C(F)(F)F)c3)cc2)ccn1 = -2.4

(I) CNC(=O)c1ccccc1Sc1ccc2c(/C=C/c3ccccn3)n[nH]c2c1
(II) Cc1ccc(Nc2nccc(N(C)c3ccc4c(C)n(C)nc4c3)n2)cc1S(N)(=O)=O
## Input For the two items I and II , which reports the higher inhibition value? Give the label of your selection.
## Output II
